All figures here come from ChEMBL document CHEMBL3596093.

system: Staphylococcus aureus; experiment: Bactericidal activity against quinolone-resistant Staphylococcus aureus CCARM 3519 after 24 hrs by agar plate method; format: functional; details: CCARM 3519, 24 h
readoutKind: MBC (µg/mL)
Report only the number, with the unit µg/mL understood.

Examples from the recorded data:
| molecule | MBC [µg/mL] |
| --- | --- |
| O=C(O)[C@H](Cc1ccccc1)N1C(=O)/C(=C/c2ccc(/C=N/n3c(-c4ccccc4)n[nH]c3=S)cc2)SC1=S | 32 |
| COc1c(N2CCNC(C)C2)c(F)cc2c(=O)c(C(=O)O)cn(C3CC3)c12 (stereo not given) [GATIFLOXACIN] | 4 |
| O=C(O)[C@H](Cc1ccccc1)N1C(=O)/C(=C/c2ccc(/C=N/n3c(-c4ccc(Cl)cc4)n[nH]c3=S)cc2)SC1=S | 128 |
| O=C(O)[C@H](Cc1ccccc1)N1C(=O)/C(=C/c2ccc(/C=N/n3c(-c4cccc(Br)c4)n[nH]c3=S)cc2)SC1=S | 256 |

Just so you know, measured MBC for `Cc1cccc(-c2n[nH]c(=S)n2/N=C/c2ccc(/C=C3\SC(=S)N([C@@H](Cc4ccccc4)C(=O)O)C3=O)cc2)c1` came out at 128

Just so you know, measured MBC for `O=C(O)[C@H](Cc1ccccc1)N1C(=O)/C(=C/c2ccc(/C=N/n3c(-c4cccc(Cl)c4)n[nH]c3=S)cc2)SC1=S` came out at 32

Just so you know, measured MBC for COc1c(N2C[C@@H]3CCCN[C@@H]3C2)c(F)cc2c(=O)c(C(=O)O)cn(C3CC3)c12 [MOXIFLOXACIN] came out at 4

Just so you know, measured MBC for `O=C(O)[C@H](Cc1ccccc1)N1C(=O)/C(=C/c2ccc(/C=N/n3c(-c4ccc(Br)cc4)n[nH]c3=S)cc2)SC1=S` came out at 64

###

Documented MBC across a set of compounds
system: Staphylococcus aureus; test: Bactericidal activity against quinolone-resistant Staphylococcus aureus CCARM 3505 after 24 hrs by agar plate method; assay type: functional; details: CCARM 3505, 24 h
Report only the number, with the unit µg/mL understood.

| compound | unitInfo | MBC |
| --- | --- | --- |
| O=C(O)[C@H](Cc1ccccc1)N1C(=O)/C(=C/c2ccc(/C=N/n3c(-c4ccc(Cl)cc4)n[nH]c3=S)cc2)SC1=S | µg/mL | 64 |
| COc1c(N2CCNC(C)C2)c(F)cc2c(=O)c(C(=O)O)cn(C3CC3)c12 (stereo not given) | µg/mL | 8 |
| O=C(O)[C@H](Cc1ccccc1)N1C(=O)/C(=C/c2ccc(/C=N/n3c(-c4cccc(Br)c4)n[nH]c3=S)cc2)SC1=S | µg/mL | 128 |
| Cc1ccc(-c2n[nH]c(=S)n2/N=C/c2ccc(/C=C3\SC(=S)N([C@@H](Cc4ccccc4)C(=O)O)C3=O)cc2)cc1 | µg/mL | 128 |
| O=C(O)[C@H](Cc1ccccc1)N1C(=O)/C(=C/c2ccc(/C=N/n3c(-c4ccc(F)cc4)n[nH]c3=S)cc2)SC1=S | µg/mL | 128 |

Just so you know, measured MBC for `O=C(O)[C@H](Cc1ccccc1)N1C(=O)/C(=C/c2ccc(/C=N/n3c(-c4ccc(Br)cc4)n[nH]c3=S)cc2)SC1=S` came out at 32

Just so you know, measured MBC for `Cc1ccccc1-c1n[nH]c(=S)n1/N=C/c1ccc(/C=C2\SC(=S)N([C@@H](Cc3ccccc3)C(=O)O)C2=O)cc1` came out at 64

###

test system: Staphylococcus aureus; test: Bactericidal activity against quinolone-resistant Staphylococcus aureus CCARM 3519 after 24 hrs by agar plate method; format: functional; settings: CCARM 3519, 24 h
Documented MBC across a set of compounds

Examples from the recorded data:
| smilesStr | MBC |
| --- | --- |
| O=C1NC(=S)S/C1=C\c1ccc(/C=N/n2c(-c3ccccc3Cl)n[nH]c2=S)cc1 | > 128 µg/mL |
| O=C(O)[C@H](Cc1ccccc1)N1C(=O)/C(=C/c2ccc(/C=N/n3c(-c4ccc(F)cc4)n[nH]c3=S)cc2)SC1=S | 128 µg/mL |
| O=C(O)[C@H](Cc1ccccc1)N1C(=O)/C(=C/c2ccc(/C=N/n3c(-c4ccccc4Br)n[nH]c3=S)cc2)SC1=S | 32 µg/mL |
| O=C1NC(=S)S/C1=C\c1ccc(/C=N/n2c(-c3ccccc3)n[nH]c2=S)cc1 | > 256 µg/mL |
| Cc1ccc(-c2n[nH]c(=S)n2/N=C/c2ccc(/C=C3\SC(=S)N(CC(=O)O)C3=O)cc2)cc1 | > 128 µg/mL |

Just so you know, measured MBC for `O=C(O)CN1C(=O)/C(=C/c2ccc(/C=N/n3c(-c4ccc(F)cc4)n[nH]c3=S)cc2)SC1=S` came out at > 256 µg/mL

###

tested on: Staphylococcus aureus; test: Bactericidal activity against methicillin-resistant Staphylococcus aureus CCARM 3506 after 24 hrs by agar plate method; type: functional; conditions: CCARM 3506, 24 h
In plain terms, low MBC, meaning strictly below 30 µg/mL, gives true, and everything else gives false.

For orientation, consider the following solved cases.
| compound | classLabel |
| --- | --- |
| COc1c(N2CCNC(C)C2)c(F)cc2c(=O)c(C(=O)O)cn(C3CC3)c12 (centres undefined) | true |
| Cc1ccccc1-c1n[nH]c(=S)n1/N=C/c1ccc(/C=C2\SC(=S)N([C@@H](Cc3ccccc3)C(=O)O)C2=O)cc1 | false |
| O=C(O)[C@H](Cc1ccccc1)N1C(=O)/C(=C/c2ccc(/C=N/n3c(-c4cccc(Cl)c4)n[nH]c3=S)cc2)SC1=S | true |
| O=C(O)[C@H](Cc1ccccc1)N1C(=O)/C(=C/c2ccc(/C=N/n3c(-c4ccccc4Cl)n[nH]c3=S)cc2)SC1=S | false |
| O=C(O)[C@H](Cc1ccccc1)N1C(=O)/C(=C/c2ccc(/C=N/n3c(-c4ccc(Br)cc4)n[nH]c3=S)cc2)SC1=S | false |

Strictly below 30 µg/mL in MBC? `Cc1ccc(-c2n[nH]c(=S)n2/N=C/c2ccc(/C=C3\SC(=S)N([C@@H](Cc4ccccc4)C(=O)O)C3=O)cc2)cc1`
false

Strictly below 30 µg/mL in MBC? `O=C1NC(=S)S/C1=C\c1ccc(/C=N/n2c(-c3ccccc3Cl)n[nH]c2=S)cc1`
false

Strictly below 30 µg/mL in MBC? `COc1c(N2C[C@@H]3CCCN[C@@H]3C2)c(F)cc2c(=O)c(C(=O)O)cn(C3CC3)c12`
true

Strictly below 30 µg/mL in MBC? `O=C(O)[C@H](Cc1ccccc1)N1C(=O)/C(=C/c2ccc(/C=N/n3c(-c4ccccc4Br)n[nH]c3=S)cc2)SC1=S`
false

###

Documented MIC across a set of compounds
test system: Streptococcus mutans; assay: Antibacterial activity against Streptococcus mutans 3065 after 24 hrs by two-fold serial dilution method; type: functional; details: Streptococcus mutans, 3065, 24 h
Report only the number, with the unit µg/mL understood.

| smilesStr | experimentalValue |
| --- | --- |
| O=C(O)[C@H](Cc1ccccc1)N1C(=O)/C(=C/c2ccc(/C=N/n3c(-c4ccccc4Br)n[nH]c3=S)cc2)SC1=S | 8 |

The recorded MIC with Streptococcus mutans for `COc1c(N2C[C@@H]3CCCN[C@@H]3C2)c(F)cc2c(=O)c(C(=O)O)cn(C3CC3)c12` was 0.25

The recorded MIC with Streptococcus mutans for `O=C(O)[C@H](Cc1ccccc1)N1C(=O)/C(=C/c2ccc(/C=N/n3c(-c4ccccc4)n[nH]c3=S)cc2)SC1=S` was 8

The recorded MIC with Streptococcus mutans for `O=C(O)[C@H](Cc1ccccc1)N1C(=O)/C(=C/c2ccc(/C=N/n3c(-c4ccc(Br)cc4)n[nH]c3=S)cc2)SC1=S` was 16

The recorded MIC with Streptococcus mutans for `O=C1NC(=S)S/C1=C\c1ccc(/C=N/n2c(-c3ccccc3Br)n[nH]c2=S)cc1` was 16

The recorded MIC with Streptococcus mutans for `O=C(O)[C@H](Cc1ccccc1)N1C(=O)/C(=C/c2ccc(/C=N/n3c(-c4cccc(Br)c4)n[nH]c3=S)cc2)SC1=S` was 64

The recorded MIC with Streptococcus mutans for `O=C(O)[C@H](Cc1ccccc1)N1C(=O)/C(=C/c2ccc(/C=N/n3c(-c4ccc(Cl)cc4)n[nH]c3=S)cc2)SC1=S` was 16

The recorded MIC with Streptococcus mutans for `O=C1NC(=S)S/C1=C\c1ccc(/C=N/n2c(-c3ccccc3)n[nH]c2=S)cc1` was 16

###

tested on: Staphylococcus aureus; assay: Antibacterial activity against Staphylococcus aureus KCTC 209 after 24 hrs by two-fold serial dilution method; assay type: functional; conditions: KCTC 209, 24 h
Documented MIC across a set of molecules

| smilesStr | MIC |
| --- | --- |
| Cc1cccc(-c2n[nH]c(=S)n2/N=C/c2ccc(/C=C3\SC(=S)N(CC(=O)O)C3=O)cc2)c1 | > 64 µg/mL |
| O=C(O)CN1C(=O)/C(=C/c2ccc(/C=N/n3c(-c4ccccc4)n[nH]c3=S)cc2)SC1=S | > 64 µg/mL |
| O=C(O)[C@H](Cc1ccccc1)N1C(=O)/C(=C/c2ccc(/C=N/n3c(-c4cccc(Br)c4)n[nH]c3=S)cc2)SC1=S | > 64 µg/mL |
| O=C(O)[C@H](Cc1ccccc1)N1C(=O)/C(=C/c2ccc(/C=N/n3c(-c4ccccc4Br)n[nH]c3=S)cc2)SC1=S | > 64 µg/mL |
| O=C(O)[C@H](Cc1ccccc1)N1C(=O)/C(=C/c2ccc(/C=N/n3c(-c4ccc(F)cc4)n[nH]c3=S)cc2)SC1=S | > 64 µg/mL |

Just so you know, measured MIC for `Cc1ccc(-c2n[nH]c(=S)n2/N=C/c2ccc(/C=C3\SC(=S)NC3=O)cc2)cc1` came out at > 64 µg/mL
